Can you tell me solubility kinetic for the items I'm about to list?
Settings: buffer; pH 7.4; 6.0 h; 150.0 µM

Recorded solubility kinetic, per entry:
{"compound": "COc1cccc(OC)c1C(=O)Nc1ccccc1C(=O)Nc1cccc(C(F)(F)F)c1", "reported": "< 1 µg/mL"}
{"compound": "Cc1cc(C)nc(NC(=S)N2CCN(c3ccc(F)cc3F)CC2)c1", "reported": "24.8 µg/mL"}
{"compound": "Fc1cnc(-c2ccccc2C(F)F)nc1NCc1ccc(-c2cccnc2)cc1", "reported": "< 1 µg/mL"}

Count: 3. Required value per item: solubility kinetic.
1. Cc1ccc(OCCn2c(CCNC(=O)C3CCCCC3)nc3ccccc32)cc1
2. O=C(O)c1ccnc2cc(-c3nc4ccccc4n3CCN3CCCCC3)sc12
3. N[C@@H](Cc1cc(Br)c(O)c(Br)c1)C(=O)O

Completion:
["< 1 µg/mL", "6.93 µg/mL", "> 50 µg/mL"]

* * *

Can you tell me solubility kinetic for the items I'm about to list?
Conditions: buffer; pH 7.4; 6.0 h; 150.0 µM

Count: 2. Required value per item: solubility kinetic.
1. CCOC(=O)N1CCc2c(sc(NCc3sccc3C)c2C(=O)Nc2cc(Cl)ccc2OC)C1
2. CCc1cccc(NC(=O)C(Cc2ccccc2)NS(=O)(=O)c2cccs2)c1 (stereo unspecified)

Completion:
1. < 1 µg/mL
2. < 1 µg/mL

* * *

Conditions: buffer; pH 7.4; 6.0 h; 150.0 µM
Can you tell me solubility kinetic for the items I'm about to list?

Recorded solubility kinetic, per entry:
{"compound": "CC1CCCCN1c1ncnc(N)c1[N+](=O)[O-] (stereo unspecified)", "solubility kinetic": "> 35 µg/mL"}
{"compound": "Cc1nc2ccc(NC(=O)c3cc(S(=O)(=O)N(C)c4ccccc4)ccc3Cl)cc2s1", "solubility kinetic": "< 1 µg/mL"}
{"compound": "Cc1ccc(NC(=O)NCC2CCN(Cc3cccc(Cl)c3)CC2)cc1Cl", "solubility kinetic": "< 1 µg/mL"}

Count: 4. Required value per item: solubility kinetic.
1. O=c1c2ccccc2nc2n1CCC2
2. CC(C)Oc1ccc(-c2csc(N3CCC(C(N)=O)CC3)n2)cc1
3. N#C/C(=C\c1ccc(Sc2ccc(Cl)cc2)o1)c1nc2ccccc2[nH]1
4. Cc1cc(Oc2ccc(N)cn2)ccc1Cl

Completion:
> 27 µg/mL
11.7 µg/mL
< 1 µg/mL
> 35 µg/mL

* * *

Conditions: buffer; pH 7.4; 6.0 h; 150.0 µM
quantity.kind: solubility kinetic (µg/mL)
Give bare numbers, in µg/mL.

{"molecule": "Cc1c([C@@H](C)C2NC[C@H](C)C[C@@H]2O)ccc2c1C[C@@H]1[C@H]2CC=C2C[C@@H](O)CC[C@@]21C (some centres undefined)", "reported": 40.9}

Count: 3. Required value per item: solubility kinetic.
1. COc1ccc(CCNc2ncnc3onc(C)c23)c(OC)c1
2. CCOC(=O)N1CCN(C(=O)Cn2sc3nc(C)cc(C)c3c2=O)CC1
3. COc1ccc(NC(=O)c2[nH]c(C)c(C(C)=O)c2C)cc1S(=O)(=O)Nc1cccc(C#N)c1

Completion:
1. 9.08
2. 39
3. 2.28

* * *

Conditions: buffer; pH 7.4; 6.0 h; 150.0 µM
quantity.kind: solubility kinetic

{"compound": "CC(C)(C)C1CCc2nc(NC(=O)c3cccc(Cl)c3)sc2C1 (stereo not given)", "reported": "< 1 µg/mL"}
{"compound": "COc1ccc(Nc2ncnc3c2cnn3-c2ccc(C)cc2)cc1Cl", "reported": "0.075 µg/mL"}
{"compound": "NC(=O)C1CCN(c2nccc(-c3ccc4c(c3)OCCCO4)n2)CC1", "reported": "44.2 µg/mL"}
{"compound": "Cc1ccc(-c2cc(C(=O)NCc3cnn(C)c3)c3cc(Br)ccc3n2)cc1", "reported": "< 1 µg/mL"}

Prompt: Requested field: solubility kinetic. Item: Cc1nc(-c2ccccc2)cc([C@H]2CN3CC[C@H]2C[C@@H]3CNC2CCOCC2)n1
Completion: > 58 µg/mL

* * *

Settings: buffer; pH 7.4; 6.0 h; 150.0 µM
quantity.kind: solubility kinetic

Recorded solubility kinetic, per entry:
{"compound": "CCc1ccc2oc(NC3=NC(c4[nH]ncc4Cl)C4=C(CCCC4=O)N3)nc2c1 (stereo not given)", "solubility kinetic": "< 1 µg/mL"}
{"compound": "Clc1cccc(-c2ccc(-c3nnc(CCCc4ccc5cccnc5n4)o3)cc2)c1", "solubility kinetic": "< 1 µg/mL"}
{"compound": "CCn1cc(C(=O)N2CCN(c3cccc(Cl)c3)CC2)c2cc(OC)c(OC)cc2c1=O", "solubility kinetic": "3.32 µg/mL"}

Count: 2. Required value per item: solubility kinetic.
1. Cc1nn(CCc2nc(-c3ccc4ccccc4c3)cs2)c2[nH]c(=O)cc(C(F)(F)F)c12
2. CC(=O)c1c(C)[nH]c(C(=O)Nc2cccc([S+](=O)([O-])Nc3ccccn3)c2)c1C

Completion:
1. < 1 µg/mL
2. > 61 µg/mL

* * *

Can you tell me solubility kinetic for the items I'm about to list?
Details: buffer; pH 7.4; 6.0 h; 150.0 µM

Count: 7. Required value per item: solubility kinetic.
1. CC(C)c1ccc(Nc2c(-c3ccccn3)nc3ccccn23)cc1
2. CC(=O)NCc1ccc(-c2csc(Nc3cc(C)cc(C)c3)n2)o1
3. CCC(=O)NC(c1cccs1)c1cc([N+](=O)[O-])c2cccnc2c1O (configuration not stated)
4. O=C(Nc1ccc(-c2nc3cc(NC(=O)c4ccccc4Cl)ccc3o2)cc1)c1ccccc1Cl
5. N#Cc1cccc(NC(=O)c2sc3nc4c(cc3c2N)N2CCC4CC2)c1
6. Clc1ccccc1-c1nccc(-n2ccnc2)n1
7. Cc1ccc(-c2csc(NC(=O)c3ccccc3NS(=O)(=O)c3ccc(C)cc3)n2)cc1

Completion:
< 1 µg/mL
1.14 µg/mL
> 53 µg/mL
< 1 µg/mL
5.07 µg/mL
7.3 µg/mL
< 1 µg/mL

* * *

Can you tell me solubility kinetic for the items I'm about to list?
Conditions: buffer; pH 7.4; 6.0 h; 150.0 µM
Give bare numbers, in µg/mL.

Recorded solubility kinetic, per entry:
{"compound": "CC1CCC(NC(=O)c2ccc3c(c2)N(Cc2ccccc2F)C(=O)c2ccccc2S3)CC1 (stereo not given)", "solubility kinetic (µg/mL)": 1.06}
{"compound": "CC1=Nc2cc(C(=O)NC3CCCC3)ccc2Sc2ccc(C)cc21", "solubility kinetic (µg/mL)": 1.05}
{"compound": "CCOC(=O)c1cnc2ccc(-c3cncc(NS(=O)(=O)c4ccccc4)c3)cn12", "solubility kinetic (µg/mL)": 6.49}

Now for a further compound.
Prompt: Requested field: solubility kinetic. Item: CC(C)c1ccccc1-c1nc2c(c(NCc3ccc(-c4cccnc4)cc3)n1)CNC2
Completion: 40.9

* * *

Can you tell me solubility kinetic for the items I'm about to list?
Conditions: buffer; pH 7.4; 6.0 h; 150.0 µM
One number for each entry, in mg/mL.

{"structure.as.smiles": "Cc1ccc(S(=O)(=O)Nc2cnccc2C(=O)Nc2cccc3ccccc23)cc1", "solubility kinetic, mg/mL": 0.0464}
{"structure.as.smiles": "Cc1ccccc1C(=O)N1CCc2cc(-c3ccnc(NC(=O)Cc4ccccc4)n3)ccc21", "solubility kinetic, mg/mL": 0.00619}
{"structure.as.smiles": "Fc1cc(Nc2nc(-c3ccncc3)nc3ccccc23)ccc1N1CCNCC1", "solubility kinetic, mg/mL": 0.00402}
{"structure.as.smiles": "CCOc1ccc(CCNC(=O)c2cccc(C(=O)c3ccccc3)c2)cc1OCC", "solubility kinetic, mg/mL": 0.00312}
{"structure.as.smiles": "Cc1nn2c(c1-c1ccccc1Oc1ccccc1)N(Cc1ccccc1O)CCC2", "solubility kinetic, mg/mL": 0.0139}

Count: 5. Required value per item: solubility kinetic.
1. COC(=O)c1ccnc(-c2cc(C(=O)NCCc3ccccc3)ccn2)c1
2. CN(C)c1cccc(-c2c3c(=O)n(-c4ccccc4Cl)[nH]c3cc(=O)n2C)c1
3. Cc1cc(C)nc(NC(=S)N2CCN(c3cccc(C(F)(F)F)n3)CC2)c1
4. C[C@H]1CN(C(=O)c2nn(C)c3ccccc23)C[C@@H]1c1nc(-c2cccnc2)no1
5. O=C(c1ccco1)N1CCN(c2nc(-c3ccc(Br)cc3)cs2)CC1

Completion:
0.00536
0.0465
0.0206
0.0197
0.0023

Prompt: Requested field: solubility kinetic. Item: Fc1ccc(CN2CCNc3cc(Nc4ccccc4)ncc3C2)cc1F
Completion: 0.0453

* * *

Settings: buffer; pH 7.4; 6.0 h; 150.0 µM
Can you tell me solubility kinetic for the items I'm about to list?

{"structure.as.smiles": "CNC(=O)c1cccc(-c2cnc(Nc3cccc(C(F)(F)F)c3)c3c2CCO3)c1", "solubility kinetic": "< 1 µg/mL"}
{"structure.as.smiles": "N#Cc1nc(-c2cccc3ccccc23)oc1Nc1ccccc1", "solubility kinetic": "< 1 µg/mL"}
{"structure.as.smiles": "O=C(Nc1ncc(Cc2cccc(C(F)(F)F)c2)s1)c1ccc(-c2cccc([N+](=O)[O-])c2)o1", "solubility kinetic": "< 1 µg/mL"}
{"structure.as.smiles": "NC(=O)c1cccc(-c2cc(Nc3ccc(OC(F)(F)F)cc3)ncn2)c1", "solubility kinetic": "< 1 µg/mL"}

Now for a further molecule.
Prompt: Requested field: solubility kinetic. Item: Clc1ccc(C2=Nn3c(nnc3-c3ccncc3)SC2)cc1
Completion: 1.45 µg/mL
